Target: Left-right determination factor 2 (Homo sapiens) (UniProt O00292)
Sequence (O00292 whole entry, looked up): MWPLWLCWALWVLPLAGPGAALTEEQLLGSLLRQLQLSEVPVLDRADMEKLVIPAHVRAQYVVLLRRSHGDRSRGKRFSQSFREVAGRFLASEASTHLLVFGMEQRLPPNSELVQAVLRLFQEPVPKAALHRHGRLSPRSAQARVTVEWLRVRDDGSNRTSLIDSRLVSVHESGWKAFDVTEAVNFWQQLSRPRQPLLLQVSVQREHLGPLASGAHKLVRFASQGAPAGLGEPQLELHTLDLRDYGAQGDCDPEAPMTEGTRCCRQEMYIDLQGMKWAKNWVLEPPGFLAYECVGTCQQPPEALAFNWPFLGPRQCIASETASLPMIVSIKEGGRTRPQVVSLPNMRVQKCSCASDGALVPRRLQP
Assay: small molecules binding LEFTY2 protein – biochemical, small-molecule microarray, 635 nm fluorescence scan, primary screen (AID 1110)
Conditions: higher = more signal
Assign T to entries whose composite z-score meets or exceeds -0.2; assign F to the rest.

Task: hey, is composite z-score for this one >= -0.2? C=C(CCCC)/C(=C/C[C@H](OC(C)=O)c1ccc(OCCO)cc1)c1cnc2ccccc2c1
Result: T

Task: Dear colleague, could you confirm whether O=C(CS)NCCCCCNC(=O)[C@@H]1C[C@@H]2C(=O)NCC(=O)N2[C@@H]1c1ccc(O)cc1 has composite z-score at or above -0.2?
Result: T

Task: For this compound, is measured composite z-score -0.2 or higher? CC(C)NC(=O)[C@@H]1c2ccccc2C(=O)N(C(C)C)[C@H]1c1ccc(CO)cc1
Result: F

Task: In plain terms: is recorded composite z-score at least -0.2 for O=C1C2C=CC(C(O)c3ccc(-c4ccccc4)s3)N(Nc3ccccc3)C2C(=O)N1c1ccccc1 (centres undefined) ?
Result: F

Task: hey, is composite z-score for this one >= -0.2? O=C1C[C@@](C(=O)NCc2ccccc2)(c2ccc([N+](=O)[O-])cc2)[C@@H](c2ccc(CO)cc2)N1CC12CC3CC(CC(C3)C1)C2
Result: T

Task: Exam item: decide whether the reported composite z-score for O=C1[C@H]2C=C(I)[C@H](C[C@@H]2OCCCCO)[C@@]12CO2 is at least -0.2.
Result: F

Task: Does the compound CC(C)CNC(=O)[C@@]1(Cc2ccccc2I)c2ccccc2C(=O)N(Cc2ccccc2C(F)(F)F)[C@H]1c1ccc(CO)cc1 have recorded composite z-score that is -0.2 or more?
Result: F

Task: Item COc1cc2c(cc1OC)CN(C(=O)[C@H]1[C@@H]3C(=O)O[C@@H](c4ccccc4)[C@@H](c4ccccc4)N3[C@@H](c3ccccc3OCCO)[C@]13C(=O)Nc1ccc(C#CCCO)cc13)CC2 with composite z-score of -0.2 or above?
Result: T

Task: Is it the case that COCCOC(=O)N1C(=O)[C@@]2(c3cc(C#CC4(O)CCCCCC4)ccc31)[C@H](C(=O)Nc1nc3ccccc3s1)[C@H]1C(=O)O[C@H](c3ccccc3)[C@H](c3ccccc3)N1[C@@H]2c1ccc(OCCO)cc1 has composite z-score reaching or exceeding -0.2?
Result: T

====

Test system: Fibrinogen (Alexa647-labelled)
Assay: Alexa647-fibrinogen binding to printed small molecules – biochemical, small-molecule microarray, 635/667 nm fluorescence, artefact control for SMM control-protein annotation, profiling panel (AID 1131);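 note: z-score merges 667 nm fluorescence with per-spot signal-to-noise over triplicate slides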
Settings: fibrinogen-A647 binding fluorescence, higher = more signal
So basically: composite z-score at 0.9 or higher? That is 1.0. Lower than 0.9? That is 0.0.

Task: Assess whether reported composite z-score for C#CCN(C/C=C/c1ccccc1)[C@H](CO)c1ccccc1 sits at 0.9 or higher.
Result: 0.0

Task: Could you tell me if the measured composite z-score of CN1C(=O)C2C=CC(C(O)c3c(F)cccc3Cl)N(NC(=O)OC(C)(C)C)C2C1=O (stereo unspecified) reaches 0.9 or more?
Result: 1.0

Task: Dear colleague, could you confirm whether C=CCNC(=O)[C@@H]1[C@H]2C(=O)O[C@H](c3ccccc3)[C@H](c3ccccc3)N2[C@H](c2ccc(OCCO)cc2)[C@@]12C(=O)N(C(=O)OCCOC)c1ccc(C#CCC(C(=O)OC)C(=O)OC)cc12 has composite z-score at or above 0.9?
Result: 0.0

Task: Is composite z-score for C=C(CCCC)/C(=C/C[C@H](OC(C)=O)c1ccc(OCCO)cc1)c1cnc2ccccc2c1 at or above 0.9?
Result: 0.0

Task: Say whether CCCCN1CC=CC23O[C@@H]4/C=C\CCCOC(=O)C4[C@H]2C(=O)N(CCCO)[C@@H]3C1=O (stereo partly specified) shows composite z-score of 0.9 or more.
Result: 0.0

Ref: PubChem BioAssay
